# procedure-text: Plasma PK of compound K of WO 2011/021038 in male Balb/c mice
# Type: in vivo, mouse
# measurement-conditions: PO, 10 mg/kg; male Balb/c mouse plasma
measured-property: Cmax (ng/mL)
Numeric only. Scale: ng/mL

Which Cmax reading was recorded for the compound c1cc(-c2nc(N3CCOCC3)c3oc4ncc(CN5CCOCC5)cc4c3n2)c2cc[nH]c2c1 ?
1720

----------
# procedure-text: Plasma PK of compound K of WO 2011/021038 in male Balb/c mice
# Type: in vivo, mouse
# measurement-conditions: IV, 3 mg/kg; male Balb/c mouse plasma
measured-property: Cmax (ng/mL)
Numeric only. Scale: ng/mL

Which Cmax reading was recorded for the compound c1cc(-c2nc(N3CCOCC3)c3oc4ncc(CN5CCOCC5)cc4c3n2)c2cc[nH]c2c1 ?
2980

----------
pKi: −log10 of the molar value.
Values of pKi reported for PI3K p110β (Homo sapiens) appear below.

Check out these entries, answers already filled in.
[O-][S+]1CCN(Cc2cnc3oc4c(N5CCOCC5)nc(-c5cc(Cl)cc6[nH]ccc56)nc4c3c2)CC1
< 5.00
CN(CCS(C)(=O)=O)Cc1cnc2oc3c(N4CCOCC4)nc(-c4cccc5[nH]ccc45)nc3c2c1
≥ 6.30
N#Cc1cc(-c2nc(N3CCOCC3)c3oc4ncc(CN5CC[S+]([O-])CC5)cc4c3n2)c2cc[nH]c2c1
< 5.00
O=S1(=O)CCN(Cc2cnc3oc4c(N5CCOCC5)nc(-c5cccc6[nH]ccc56)nc4c3c2)CC1
≥ 6.30
[O-][S+]1CCN(Cc2cnc3oc4c(N5CCOCC5)nc(-c5cccc6[nH]ccc56)nc4c3c2)CC1 [Example B]
≥ 6.30
C[C@H](c1cnc2oc3c(N4CCOCC4)nc(-c4cccc5[nH]ccc45)nc3c2c1)N1CCS(=O)(=O)CC1
≥ 6.30
O=C(O)c1ccc2[nH]ccc2c1-c1nc(N2CCOCC2)c2oc3ncc(CN4CC[S+]([O-])CC4)cc3c2n1
< 5.00
N#Cc1ccc2[nH]ccc2c1-c1nc(N2CCOCC2)c2oc3ncc(CN4CC[S+]([O-])CC4)cc3c2n1
≥ 6.30

Which pKi reading was recorded for the molecule [O-][S+]1CCN(Cc2cnc3oc4c(N5CCOCC5)nc(-c5cc(C(F)(F)F)cc6[nH]ccc56)nc4c3c2)CC1 ?
< 5.00

Now this one: [O-][S+]1CCN(Cc2cnc3oc4c(N5CCOCC5)nc(-c5cccc6[nH]ccc56)nc4c3c2)CC1 [Example AH]
≥ 6.30

Now this one: Cc1cc2c(-c3nc(N4CCOCC4)c4oc5ncc(CN6CC[S+]([O-])CC6)cc5c4n3)cccc2[nH]1
≥ 6.30

----------
# procedure-text: Plasma PK of Example B, oral bioavailability and clearance in male Balb/c mice
# Type: in vivo, mouse
# measurement-conditions: PO, 10 mg/kg; male Balb/c mouse plasma; Mesylate Salt
measured-property: AUC(0-t) (ng·h/mL)
Numeric only. Scale: ng·h/mL

Which AUC(0-t) reading was recorded for the compound [O-][S+]1CCN(Cc2cnc3oc4c(N5CCOCC5)nc(-c5cccc6[nH]ccc56)nc4c3c2)CC1 ?
7690

----------
Overview of recorded Ki for various compounds
# test-target: PI3K p110δ (Homo sapiens)
# Construct: assay run at Proqinase GmbH
# Sequence (O00329 whole entry): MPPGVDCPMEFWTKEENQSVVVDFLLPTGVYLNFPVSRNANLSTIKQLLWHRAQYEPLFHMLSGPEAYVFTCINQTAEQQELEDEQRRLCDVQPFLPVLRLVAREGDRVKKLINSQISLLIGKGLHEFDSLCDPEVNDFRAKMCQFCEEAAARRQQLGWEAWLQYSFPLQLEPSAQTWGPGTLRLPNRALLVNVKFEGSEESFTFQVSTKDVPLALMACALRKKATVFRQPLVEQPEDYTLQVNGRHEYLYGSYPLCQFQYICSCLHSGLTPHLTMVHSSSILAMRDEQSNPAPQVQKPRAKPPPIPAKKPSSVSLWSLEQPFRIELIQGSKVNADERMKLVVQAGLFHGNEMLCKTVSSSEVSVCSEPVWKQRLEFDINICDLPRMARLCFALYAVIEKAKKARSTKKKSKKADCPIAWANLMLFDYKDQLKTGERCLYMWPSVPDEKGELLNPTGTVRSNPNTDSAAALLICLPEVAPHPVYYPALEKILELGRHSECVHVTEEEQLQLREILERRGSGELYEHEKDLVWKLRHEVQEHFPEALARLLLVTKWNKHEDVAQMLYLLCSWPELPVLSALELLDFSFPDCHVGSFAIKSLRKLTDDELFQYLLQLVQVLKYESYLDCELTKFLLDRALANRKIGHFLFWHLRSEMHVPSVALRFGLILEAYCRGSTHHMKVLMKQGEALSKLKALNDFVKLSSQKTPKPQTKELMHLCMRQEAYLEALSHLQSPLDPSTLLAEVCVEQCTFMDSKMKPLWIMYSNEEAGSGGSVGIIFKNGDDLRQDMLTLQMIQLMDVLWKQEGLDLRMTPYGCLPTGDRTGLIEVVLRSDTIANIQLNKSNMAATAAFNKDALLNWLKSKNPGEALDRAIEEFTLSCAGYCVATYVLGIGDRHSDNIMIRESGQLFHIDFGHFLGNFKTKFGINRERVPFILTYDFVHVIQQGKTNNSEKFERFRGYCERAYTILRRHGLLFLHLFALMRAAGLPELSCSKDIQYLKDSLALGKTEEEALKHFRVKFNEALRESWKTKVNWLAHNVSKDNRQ
# Sequence (P27986 whole entry partner): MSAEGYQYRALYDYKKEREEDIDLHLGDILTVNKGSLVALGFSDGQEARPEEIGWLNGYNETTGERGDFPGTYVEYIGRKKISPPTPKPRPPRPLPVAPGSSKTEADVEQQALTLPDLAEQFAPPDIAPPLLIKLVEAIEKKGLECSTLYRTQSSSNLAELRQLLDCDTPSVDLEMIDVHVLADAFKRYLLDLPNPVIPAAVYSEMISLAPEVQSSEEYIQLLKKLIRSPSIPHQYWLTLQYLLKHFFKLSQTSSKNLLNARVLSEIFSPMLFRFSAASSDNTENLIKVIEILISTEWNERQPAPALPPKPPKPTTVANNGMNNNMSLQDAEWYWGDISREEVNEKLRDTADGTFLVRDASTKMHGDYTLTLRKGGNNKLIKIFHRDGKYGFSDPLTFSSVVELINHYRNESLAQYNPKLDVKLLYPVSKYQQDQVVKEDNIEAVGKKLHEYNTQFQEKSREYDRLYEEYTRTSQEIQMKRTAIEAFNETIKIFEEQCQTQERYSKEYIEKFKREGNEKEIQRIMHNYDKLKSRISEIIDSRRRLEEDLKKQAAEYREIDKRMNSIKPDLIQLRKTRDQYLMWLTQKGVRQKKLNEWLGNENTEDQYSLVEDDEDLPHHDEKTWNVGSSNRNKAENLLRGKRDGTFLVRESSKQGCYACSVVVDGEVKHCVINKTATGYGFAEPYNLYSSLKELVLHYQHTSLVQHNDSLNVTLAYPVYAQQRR
# procedure-text: Ki determination, non-radiometric ADP-Glo assay (Proqinase GmbH)
# Assay type: biochemical

N#Cc1cc(-c2nc(N3CCOCC3)c3oc4ncc(CN5CC[S+]([O-])CC5)cc4c3n2)c2cc[nH]c2c1
> 10 µM
[O-][S+]1CCN(Cc2cnc3oc4c(N5CCOCC5)nc(-c5c(Cl)ccc6[nH]ccc56)nc4c3c2)CC1
≤ 0.5 µM
COc1ccc2c(c1-c1nc(N3CCOCC3)c3oc4ncc(CN5CC[S+]([O-])CC5)cc4c3n1)CCN2
≤ 0.5 µM
[O-][S+]1CC2CC1CN2Cc1cnc2oc3c(N4CCOCC4)nc(-c4cccc5[nH]ccc45)nc3c2c1 (stereo not shown)
≤ 0.5 µM
Cc1c[nH]c2cccc(-c3nc(N4CCOCC4)c4oc5ncc(CN6CC[S+]([O-])CC6)cc5c4n3)c12
1 to 10 µM
[O-][S+]1CCN(Cc2cnc3oc4c(N5CCOCC5)nc(-c5c(F)ccc6[nH]ccc56)nc4c3c2)CC1
≤ 0.5 µM

Which Ki reading was recorded for the compound [O-][S+]1CCN(Cc2cnc3oc4c(N5CCOCC5)nc(-c5cccc6c5CCN6)nc4c3c2)CC1 ?
≤ 0.5 µM

Now this one: CC(C)Oc1ccc2[nH]ccc2c1-c1nc(N2CCOCC2)c2oc3ncc(CN4CC[S+]([O-])CC4)cc3c2n1
≤ 0.5 µM

Now this one: [O-][S+]1CCN(Cc2cnc3oc4c(N5CCOCC5)nc(-c5cccc6[nH]cc(F)c56)nc4c3c2)CC1
≤ 0.5 µM

Now this one: O=C1Cc2c(cccc2-c2nc(N3CCOCC3)c3oc4ncc(CN5CC[S+]([O-])CC5)cc4c3n2)N1
> 10 µM
